Source of measurements: the Human Domainome abundance scans (Beltran et al. 2025)

B1: Proto-oncogene vav, residues 782 to 842; numbered along this chain, P15498 (parent)
chain: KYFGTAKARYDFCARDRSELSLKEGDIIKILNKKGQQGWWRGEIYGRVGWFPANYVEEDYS

variants of: B1; test: abundance fitness (aPCA) (normalised: wild type 0, dead -1); higher = more abundant; growth selection in yeast, the domain comes from the species named; conditions: Homo sapiens
endpoint.name: abundance fitness
One number for each entry.

These recorded examples may help you get a feel for the data.
F51Q -0.759
Q36S -0.195
Q37H 0.037
S21H -0.243

Quick batch: abundance fitness for everything below.
1. K23Y
2. T5W
3. R17T
4. T5Y
5. S61L

Result ::
1: -0.232; 2: -0.178; 3: -0.027; 4: -0.064; 5: -0.095

Each variant below has a recorded value; state its abundance fitness.
1. A8I
2. V48L
3. P52Q

Result ::
1: -0.535; 2: -0.347; 3: -0.528

// each listed variant needs a value for abundance fitness
1. Y10W
2. W50D

Result ::
1. -0.116
2. -0.493

Could I get abundance fitness for every one of these entries?
1. S18N
2. F12L
3. Y10S
4. E58A
5. E58G

Result ::
0.024
-0.813
0.044
-0.186
-0.338

Please look at the items below and tell me abundance fitness for each one, in order.
1. R9E
2. L20N
3. Y55L
4. K1F
5. I44H
6. E24H
7. T5S

Result ::
[-0.614, -0.691, 0.058, -0.159, -0.025, -0.13, -0.179]

Items follow; give abundance fitness for each.
1. R17M
2. T5C
3. L20T
4. K7C
5. C13Y
6. K34G
7. Q37R
8. K34E

Result ::
1: -0.06; 2: -0.152; 3: -0.642; 4: -0.04; 5: -0.198; 6: -0.051; 7: -0.048; 8: 0.068

For each of the variants below, state abundance fitness.
1. Y55T
2. L22C
3. Y55D
4. A14Y
5. G42R
6. C13D
7. K7N
8. Y10Q

Result ::
1. -0.206
2. -0.405
3. -0.736
4. -0.328
5. -0.398
6. -0.28
7. -0.797
8. 0.107

Quick batch: abundance fitness for everything below.
1. D11P
2. R15P
3. A8V
4. D59F
5. V56W
6. Y55A
7. V48S

Result ::
[-0.284, -0.925, -0.035, -0.015, -0.543, 0.053, -0.062]
